src = ChEMBL document CHEMBL4715896

Test system: 786-0
Experiment: Growth inhibition of human 786-0 cells incubated for 48 hrs by sulforhodamine B assay
Assay type: functional
Entries and their GI50 values follow.

[
  {
    "Compound Structure": "O=c1cccc([C@H]2[C@H](c3ccccc3)[C@H](c3cccc(=O)o3)[C@H]2c2ccccc2)o1",
    "Reading Unit": "µM",
    "GI50": 567
  },
  {
    "Compound Structure": "O=C1C=C[C@@H]2[C@H](c3ccccc3)[C@@H](c3cccc(=O)o3)[C@]2(/C=C/c2ccccc2)O1",
    "Reading Unit": "µM",
    "GI50": 61.7
  },
  {
    "Compound Structure": "O=c1cccc(/C=C/c2ccccc2)o1",
    "Reading Unit": "µM",
    "GI50": 176
  },
  {
    "Compound Structure": "COc1cccc2c1C(=O)c1c(O)c3c(c(O)c1C2=O)C[C@@](O)(C(=O)CO)C[C@@H]3O[C@H]1C[C@H](N)[C@H](O)[C@H](C)O1",
    "Reading Unit": "µM",
    "GI50": 0.16
  }
]
